# TARGET OR TEST SYSTEM: human ether-à-go-go-related gene (hERG) potassium channel (human, UniProt Q12809)
# Sequence (Q12809 whole entry, looked up): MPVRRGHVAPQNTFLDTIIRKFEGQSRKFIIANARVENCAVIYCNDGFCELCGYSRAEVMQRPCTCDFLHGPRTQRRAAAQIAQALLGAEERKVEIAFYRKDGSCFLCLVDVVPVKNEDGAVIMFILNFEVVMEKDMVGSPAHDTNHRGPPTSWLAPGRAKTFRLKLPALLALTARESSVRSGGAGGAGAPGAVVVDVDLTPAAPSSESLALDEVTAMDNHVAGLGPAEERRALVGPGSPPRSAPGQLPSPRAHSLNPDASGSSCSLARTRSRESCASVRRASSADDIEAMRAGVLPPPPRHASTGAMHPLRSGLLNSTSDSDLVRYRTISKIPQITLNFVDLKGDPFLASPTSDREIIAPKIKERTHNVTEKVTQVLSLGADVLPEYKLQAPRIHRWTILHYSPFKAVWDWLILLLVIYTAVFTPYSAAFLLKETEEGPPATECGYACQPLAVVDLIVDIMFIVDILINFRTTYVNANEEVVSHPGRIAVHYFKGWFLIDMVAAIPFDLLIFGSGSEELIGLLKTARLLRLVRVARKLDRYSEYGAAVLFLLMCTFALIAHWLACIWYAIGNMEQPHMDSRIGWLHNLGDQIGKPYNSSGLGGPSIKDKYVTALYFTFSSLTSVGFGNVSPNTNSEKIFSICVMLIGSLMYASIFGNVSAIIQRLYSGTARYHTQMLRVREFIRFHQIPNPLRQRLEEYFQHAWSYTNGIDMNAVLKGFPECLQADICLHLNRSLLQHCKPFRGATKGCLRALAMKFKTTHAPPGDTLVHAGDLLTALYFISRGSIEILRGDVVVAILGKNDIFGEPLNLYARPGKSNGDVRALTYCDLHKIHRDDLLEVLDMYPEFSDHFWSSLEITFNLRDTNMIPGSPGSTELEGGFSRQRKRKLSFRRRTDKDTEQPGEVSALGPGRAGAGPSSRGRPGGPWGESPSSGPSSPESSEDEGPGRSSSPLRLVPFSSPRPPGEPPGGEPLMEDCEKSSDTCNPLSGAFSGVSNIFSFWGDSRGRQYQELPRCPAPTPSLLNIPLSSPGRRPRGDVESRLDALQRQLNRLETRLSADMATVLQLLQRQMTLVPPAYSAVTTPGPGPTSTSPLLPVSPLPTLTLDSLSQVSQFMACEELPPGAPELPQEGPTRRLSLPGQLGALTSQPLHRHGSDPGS
# ASSAY TEXT: primary screen, population patch clamp on CHO cells stably expressing hERG; higher = less effect of the substance
The whole screen tested about 310,000 compounds, of which about 2,200 (0.71%) showed an effect of 50% or more. The effect is printed as a negative number. For the sample, strong results were picked, then their nearest neighbours and some compounds at random.
The reader will find reported hERG current change (%, negative = inhibition) at 1uM values listed item by item below.
Number only, in %; omit the unit.

>>> recorded_value("COc1ccc(OCC(O)CNC(=O)/C=C/c2cccc([N+](=O)[O-])c2)cc1 (stereo not drawn)")
14.8
>>> recorded_value("O=C(Cn1nnc(-c2ccc(Cl)cc2)n1)NC1CCS(=O)(=O)C1 (stereo not drawn)")
0.0052
>>> recorded_value("Clc1ccc2c(N3CCCC3)ccnc2c1")
-25.9
>>> recorded_value("O=[N+]([O-])c1ccc(OCC(O)CN(CCO)CCO)cc1 (stereo not drawn)")
-16.9
>>> recorded_value("CS(=O)(=O)N1CCN(c2ccnc3cc(Cl)ccc23)CC1")
-81.3
>>> recorded_value("CN(C)S(=O)(=O)N1CCN(c2cc(Cl)ccc2Cl)CC1")
16.5
>>> recorded_value("O=[N+]([O-])c1ccc(OCC(O)CN(C2CCCCC2)C2CCCCC2)cc1 (stereo not drawn)")
-80.4
>>> recorded_value("CCCCN(CCCC)CC(O)COc1ccc(Br)cc1 (stereo not drawn)")
-43.6
>>> recorded_value("CCC(=O)N1CCN(c2ccnc3cc(Cl)ccc23)CC1")
-25.7
>>> recorded_value("CCC(=O)Nc1nc(C)c(C(=O)N2CCCCC2)s1")
12.8

query: Provide hERG current change (%, negative = inhibition) at 1uM, tested on human ether-à-go-go-related gene (hERG) potassium channel (human, UniProt Q12809), for COc1ccc(CN(C(=O)CN2C(=O)c3ccccc3S2(=O)=O)C(C(=O)NCC2CCCO2)c2ccncc2)cc1 (stereo not drawn) .
result: 0.0687

query: Provide hERG current change (%, negative = inhibition) at 1uM, tested on human ether-à-go-go-related gene (hERG) potassium channel (human, UniProt Q12809), for `CCOC(=O)C1CCN(S(=O)(=O)c2cc3c(cc2C)NC(=O)CO3)CC1` .
result: -13.1

----------
# TARGET OR TEST SYSTEM: human ether-à-go-go-related gene (hERG) potassium channel (human, UniProt Q12809)
# ASSAY TEXT: primary screen, population patch clamp on CHO cells stably expressing hERG; higher = less effect of the substance
Screen size: about 310,000 compounds; about 2,200 (0.71%) showed an effect of 50% or more. The effect is printed as a negative number. The full list was thinned out, with strong results kept by preference.
The reader will find reported hERG current change (%, negative = inhibition) at 1uM values listed item by item below.
Number only, in %; omit the unit.

Solved entries:
>>> recorded_value("CSc1ccc(/C=C2\\CCn3c2nc2cc(C(=O)O)ccc2c3=O)cc1")
15.6
>>> recorded_value("OC(COc1ccc(F)cc1)CN1CCN(CC(O)COc2ccc(F)cc2)CC1 (stereo not drawn)")
-51.1
>>> recorded_value("N#Cc1ccc(OCC(O)CN2CCN(C(c3ccccc3)c3ccccc3)CC2)cc1 (stereo not drawn)")
-69.5
>>> recorded_value("CCC(=O)c1ccc(OCC(O)CN2CCCCC2)cc1.Cl (stereo not drawn)")
3.96
>>> recorded_value("OC(COc1ccccc1)CN1CCN(C(c2ccccc2)c2ccccc2)CC1 (stereo not drawn)")
-24.1
>>> recorded_value("O=C1NC2CCc3nc4ccccc4c(=O)n3C2=Nc2ccccc21 (stereo not drawn)")
-6.24
>>> recorded_value("COc1ccc(OCC(O)CN2CCN(CC(O)COc3ccc(OC)cc3)CC2)cc1 (stereo not drawn)")
3.29
>>> recorded_value("COC(=O)c1cn(NC(=O)C2CCCO2)c(=O)c2ccccc12 (stereo not drawn)")
14.6
>>> recorded_value("CCN(CC)CCOC(=O)CCc1cccc2ccccc12.O=C(O)C(=O)O")
-3.77
>>> recorded_value("COc1ccc(S(=O)(=O)Nc2ccccc2OC)cc1NC(=O)c1cc2ccccc2oc1=O")
-4.91

query: Provide hERG current change (%, negative = inhibition) at 1uM, tested on human ether-à-go-go-related gene (hERG) potassium channel (human, UniProt Q12809), for CCC(=O)c1ccc(OCC(O)CN2CCN(C(c3ccccc3)c3ccccc3)CC2)cc1 (stereo not drawn) .
result: -51.4

query: Provide hERG current change (%, negative = inhibition) at 1uM, tested on human ether-à-go-go-related gene (hERG) potassium channel (human, UniProt Q12809), for CCC(=O)c1ccc(OCC(O)Cn2nc(C)cc2C)cc1 (stereo not drawn) .
result: 7.89

----------
# TARGET OR TEST SYSTEM: human ether-à-go-go-related gene (hERG) potassium channel (human, UniProt Q12809)
# ASSAY TEXT: primary screen, population patch clamp on CHO cells stably expressing hERG; higher = less effect of the substance
In all, about 310,000 compounds went through this assay and about 2,200 (0.71%) showed an effect of 50% or more. Effects have a minus sign here. This excerpt belongs to a sample that is enriched for strong results.
RESULT TYPE: hERG current change (%, negative = inhibition) at 1uM (%)
Number only, in %; omit the unit.

Solved entries:
>>> recorded_value("O=C(CSc1nnc(-c2cccnc2)n1CCN1CCCCC1)Nc1cccc(Cl)c1")
-80.3
>>> recorded_value("CC(=O)Nc1ccc(SCC(=O)Nc2ccccc2Oc2ccccc2)cc1")
3.2
>>> recorded_value("CNC(=O)c1ccccc1NC(=O)c1ccc(C)c(S(=O)(=O)N2CCCCC2)c1")
-2.21
>>> recorded_value("CN(C)CCCN=Cc1c(O)n(Cc2ccccc2)c(=O)c2ccccc12")
-25.5
>>> recorded_value("CCN(CC)CCCN=Cc1c(O)n(Cc2ccccc2)c(=O)c2ccccc12")
-77.3

query: In one line, give reported hERG current change (%, negative = inhibition) at 1uM of the entry `COC(=O)c1sc(NC(=S)NC(=O)c2ccccc2F)nc1C` .
result: 2.7

query: In one line, give reported hERG current change (%, negative = inhibition) at 1uM of the entry O=C(NC1CCCCCC1)c1ccc(CS(=O)Cc2cccc(Cl)c2)o1 (centres unmarked) .
result: 5.33

query: In one line, give reported hERG current change (%, negative = inhibition) at 1uM of the entry `CN(C)CCN=Cc1c(O)n(Cc2ccccc2)c(=O)c2ccccc12` .
result: -6.8

query: In one line, give reported hERG current change (%, negative = inhibition) at 1uM of the entry `O=Cc1c(NCc2ccccc2)c2ccccc2[nH]c1=O` .
result: 12.6

query: In one line, give reported hERG current change (%, negative = inhibition) at 1uM of the entry `COc1ccc(C(=O)NC(=S)Nc2ccc(S(=O)(=O)Nc3cc(OC)nc(OC)n3)cc2)cc1` .
result: 13.7

query: In one line, give reported hERG current change (%, negative = inhibition) at 1uM of the entry `COc1ccc(/C(C)=N/Nc2ccc(C(=O)O)cc2)cc1OC.O=S(=O)(O)O` .
result: 11.7

query: In one line, give reported hERG current change (%, negative = inhibition) at 1uM of the entry `COc1ccccc1CNC(=O)C1CCN(S(=O)(=O)c2ccc3c(c2)OCCCO3)CC1` .
result: -1.02

query: In one line, give reported hERG current change (%, negative = inhibition) at 1uM of the entry COc1ccc(OC)c(C2C(C(N)=O)=C(C)Nc3nc(CCCO)nn32)c1 (centres unmarked) .
result: 15.5

query: In one line, give reported hERG current change (%, negative = inhibition) at 1uM of the entry CCOC(=O)c1c(NC(=O)C2C3C=CC(C3)C2C(=O)O)sc2c1CC(C)(C)OC2 (centres unmarked) .
result: 2.99

----------
The reader will find reported hERG current change (%, negative = inhibition) at 1uM values listed item by item below.
# TARGET OR TEST SYSTEM: human ether-à-go-go-related gene (hERG) potassium channel (human)
# ASSAY TEXT: primary screen, population patch clamp on CHO cells stably expressing hERG; higher = less effect of the substance
The campaign covered roughly 310,000 compounds. About 2,200 (0.71%) showed an effect of 50% or more. The effect is printed as a negative number. What follows is part of a selection rich in strong results, with near analogues and random picks from the rest.
Number only, in %; omit the unit.

Solved entries:
>>> recorded_value("O=C(Nc1ccnn1C1CCN(C2CCCC2)CC1)c1ccccc1")
13.3
>>> recorded_value("O=C(Nc1ccnn1C1CCN(CC2CC=CCC2)CC1)c1ccccc1Cl (centres unmarked)")
-37.8

query: In one line, give reported hERG current change (%, negative = inhibition) at 1uM of the entry COc1ccccc1C(=O)Nc1ccnn1C1CCN(CC2CC=CCC2)CC1 (centres unmarked) .
result: -69.1

query: In one line, give reported hERG current change (%, negative = inhibition) at 1uM of the entry `O=C(Nc1ccnn1C1CCN(CCCC2CCCC2)CC1)c1ccccc1Cl` .
result: -99

query: In one line, give reported hERG current change (%, negative = inhibition) at 1uM of the entry `Cc1c(O)ccc(NS(=O)(=O)c2ccccc2)c1C` .
result: 13
